target.or.test.system: PCSK9 (Homo sapiens, UniProt Q8NBP7)
Sequence (Q8NBP7 153-692): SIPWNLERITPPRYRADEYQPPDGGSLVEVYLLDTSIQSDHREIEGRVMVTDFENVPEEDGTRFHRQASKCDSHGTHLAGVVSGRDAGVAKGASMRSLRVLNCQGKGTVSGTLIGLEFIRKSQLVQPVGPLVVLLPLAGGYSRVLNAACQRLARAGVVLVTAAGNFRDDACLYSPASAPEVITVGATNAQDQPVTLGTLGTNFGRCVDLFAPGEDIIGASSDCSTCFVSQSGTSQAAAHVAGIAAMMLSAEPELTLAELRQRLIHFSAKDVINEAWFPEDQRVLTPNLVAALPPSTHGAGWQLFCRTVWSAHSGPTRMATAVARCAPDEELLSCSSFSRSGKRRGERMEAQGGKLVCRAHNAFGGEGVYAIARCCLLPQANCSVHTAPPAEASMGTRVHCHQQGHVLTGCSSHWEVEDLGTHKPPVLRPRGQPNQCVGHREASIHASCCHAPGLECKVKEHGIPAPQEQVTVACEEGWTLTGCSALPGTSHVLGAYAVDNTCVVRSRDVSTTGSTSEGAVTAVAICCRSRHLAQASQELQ
protocol.notes: Differential scanning calorimetry (DSC) assay, direct binding / thermal stabilization of PCSK9
test.parameters: Tm(with compound)−Tm(no compound); 2 μM PCSK9, 300 μM test compound
Protocol: Differential scanning calorimetry (DSC) was used as a biophysical method to confirm direct binding to PCSK9. A solution containing 2 μM PCSK9 with or without 300 μM test compound in 25 mM HEPES (pH 7.5)/150 mM NaCl/1 mM CaCl2/3.75% DMSO was transferred to the sample cell of the DSC instrument, while buffer alone was placed in the reference cell. […] Each thermogram was analyzed to provide the melting temperature (Tm) of the protein. […]
Listing of entries alongside the reported ΔTm at 300 µM.
Numeric only. Scale: °C

Below, 2 compounds whose answers are already recorded.
* C[C@]1(CC(=O)Nc2nccs2)NCCc2cc(OCC3CCCCO3)c(Oc3ccc(C(=O)O)c(F)c3)cc21 (single isomer, unassigned) [Example 70] | 7.98
* COc1cc2c(cc1Oc1ccc(-c3ccc(C(=O)O)cc3)nc1)[C@@](C)(CC(=O)Nc1nccs1)NCC2 | 5.29

What value of measured ΔTm at 300 µM is listed for C[C@]1(CC(=O)Nc2cccnn2)NCCc2cc(OCC3CCCCO3)c(Oc3ccc(Br)c(F)c3)cc21 (stereo partly shown) ?
5.51

What value of measured ΔTm at 300 µM is listed for C[C@]1(CC(=O)Nc2nccs2)NCCc2cc(OCCn3cc(C(N)CO)nn3)c(Oc3ccc(C(=O)O)c(F)c3)cc21 (stereo partly shown) ?
5.63

Data origin: patent US11008313B2
